Items are presented alongside their recorded % Inhibition.
- Tested on: P. falciparum stage V gametocytes
- Design: BacTiter-Glo ATP luminescence viability of purified stage V gametocytes in 384-well plates, per cent inhibition versus DMSO
- condition_notes: 48 h, 5 µM; inhibitor
The campaign covered roughly 13,000 compounds. About 3,200 (25%) showed an effect of 50% or more. Some of the results follow.
Write it as a number; the unit % goes unstated.

Below: 3 molecules and their reported % Inhibition.
chemical_structure	assay_readout	experimental_result
COc1ccc(NC(=O)Nc2ccc(-c3ccc(-c4nc5cccc(C)c5[nH]4)s3)cc2)cc1	% Inhibition	-2.294
COc1ccc(NC(=O)[C@H](C)Nc2cc(C)nc(NCC3CCCCC3)n2)cc1	% Inhibition	-9.943
COc1ccc2nccc([C@@H](O)CN3CCC(NCc4ccc5sc(=O)[nH]c5c4)CC3)c2c1	% Inhibition	32.68

Next item in the queue.
Noted for COc1ccc(CCON2C(N)=NC(N)=NC2(C)C)cc1OC : its % Inhibition reads -1.929

This collection of values is drawn from paper PMC4552634.
